- TEST_TARGET: HLA-A*29:02
- EXPERIMENT_DESCRIPTION: IEDB peptide-MHC binding, purified MHC/direct/fluorescence; filed as Kd, often an IC50 or EC50 that approximates it; bounds were set here for any values at or beyond the usual limits of such assays
- STATED_CONDITIONS: source organism: Mammarenavirus juninense
pKd: −log10 of the molar value.
PARAMETER_MEASURED: pKd

[[record]]
record_sequence = "FRRVAHSSL"
result_value = "≤ 4.70"


====

- TEST_TARGET: HLA-B*57:01
- EXPERIMENT_DESCRIPTION: IEDB peptide-MHC binding, purified MHC/competitive/fluorescence; filed as Kd, often an IC50 or EC50 that approximates it; bounds were set here for any values at or beyond the usual limits of such assays
- STATED_CONDITIONS: source organism: Orthohantavirus andesense
PARAMETER_MEASURED: Kd

[[record]]
record_sequence = "VWKQLFPEL"
result_value = "≥ 20 µM"

